Source: paper PMC7157764

Listed below: Ki values for each entry.
- test_system: HCV NS3/4A protease D168A variant (Hepatitis C virus genotype 1a, UniProt P27958, C1185S/D1194A)
- Construct: His tag (cleaved yes)
- Sequence (P27958 1027-1208 C1185S/D1194A): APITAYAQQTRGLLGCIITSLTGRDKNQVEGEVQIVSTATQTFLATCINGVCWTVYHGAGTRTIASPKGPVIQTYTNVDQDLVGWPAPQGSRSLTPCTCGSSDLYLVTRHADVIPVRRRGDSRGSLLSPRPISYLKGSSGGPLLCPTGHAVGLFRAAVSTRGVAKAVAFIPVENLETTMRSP
- conditions: 2 nM protease preincubated 1 h at room temperature with inhibitor, pH 7.5, 200 nM fluorogenic substrate; Morrison equation global fit; error from global fit of at least three replicates

cpd_smiles | u | Ki
COc1ccc2nc(C)c(O[C@@H]3C[C@H]4C(=O)N[C@]5(C(=O)NS(=O)(=O)C6(C)CC6)C[C@H]5/C=C\CCCCC[C@H](NC(=O)OC5(C)CCC5)C(=O)N4C3)nc2c1 | nM | 46.4
COc1ccc2nc(C)c(O[C@@H]3C[C@H]4C(=O)N[C@]5(C(=O)NS(=O)(=O)C6(C)CC6)C[C@H]5/C=C\CCCCC[C@H](NC(=O)OC5CCCCC5)C(=O)N4C3)nc2c1 | nM | 12.7
COC(=O)NC1(C(=O)N[C@H]2CCCCC/C=C\[C@@H]3C[C@@]3(C(=O)NS(=O)(=O)C3(C)CC3)NC(=O)[C@@H]3C[C@@H](Oc4nc5cc(OC)ccc5nc4C)CN3C2=O)CCCC1 | nM | 931
